# target_of_assay: HLA-B*27:05
# test_description: IEDB peptide-MHC binding, purified MHC/direct/fluorescence; filed as Kd, often an IC50 or EC50 that approximates it; bounds were set here for any values at or beyond the usual limits of such assays
# assay_setup: source organism: Campylobacter jejuni RM1221
test_readout: Kd

Lookup result for IYDYLRLLY ; measured Kd: ≥ 20 µM

###

# target_of_assay: HLA-B*15:42
# test_description: IEDB peptide-MHC binding, purified MHC/competitive/fluorescence; filed as Kd, often an IC50 or EC50 that approximates it; bounds were set here for any values at or beyond the usual limits of such assays
# assay_setup: source organism: Mycobacterium tuberculosis variant bovis BCG str. Pasteur 1173P2
test_readout: Kd

Lookup result for RPRVAQLTF ; measured Kd: ≥ 5 µM

###

# target_of_assay: HLA-B*83:01
# test_description: IEDB peptide-MHC binding, purified MHC/competitive/fluorescence; filed as Kd, often an IC50 or EC50 that approximates it; bounds were set here for any values at or beyond the usual limits of such assays
# assay_setup: source organism: Yersinia pestis KIM10+
pKd: −log10 of the molar value.
test_readout: pKd

Value sought: pKd, system HLA-B*83:01, item SRWAISHWL . Result: ≤ 5.30

###

# target_of_assay: HLA-B*07:02
# test_description: IEDB peptide-MHC binding, purified MHC/direct/fluorescence; filed as Kd, often an IC50 or EC50 that approximates it; bounds were set here for any values at or beyond the usual limits of such assays
# assay_setup: source organism: Sudan ebolavirus - Maleo (1979)
test_readout: Kd (nM)
# output: bare number, implied unit nM

Lookup result for TPSGKRLQI ; measured Kd: 35.6

###

# target_of_assay: HLA-B*07:02
# test_description: IEDB peptide-MHC binding, purified MHC/direct/fluorescence; filed as Kd, often an IC50 or EC50 that approximates it; bounds were set here for any values at or beyond the usual limits of such assays
# assay_setup: source organism: Campylobacter jejuni
test_readout: Kd

Lookup result for WFGHLASDW ; measured Kd: ≥ 20 µM

###

Measured pKd, listed per entry.
# target_of_assay: HLA-A*30:02
# test_description: IEDB peptide-MHC binding, purified MHC/competitive/radioactivity; filed as Kd, often an IC50 or EC50 that approximates it; bounds were set here for any values at or beyond the usual limits of such assays
# assay_setup: source organism: Dengue virus 2 Jamaica/1409/1983
Formally, pKd is defined as -log10 of the concentration c, with c in mol/L.

RGDLPVWLAY: 8.16

Lookup result for NSTSTWVTY ; measured pKd: 5.76

###

# target_of_assay: HLA-B*15:09
# test_description: IEDB peptide-MHC binding, purified MHC/direct/fluorescence; filed as Kd, often an IC50 or EC50 that approximates it; bounds were set here for any values at or beyond the usual limits of such assays
# assay_setup: source organism: Vibrio vulnificus CMCP6
test_readout: Kd

Value sought: Kd, system HLA-B*15:09, item GWPDNYCEW . Result: ≥ 20 µM

###

# target_of_assay: HLA-B*15:17
# test_description: IEDB peptide-MHC binding, purified MHC/competitive/fluorescence; filed as Kd, often an IC50 or EC50 that approximates it; bounds were set here for any values at or beyond the usual limits of such assays
# assay_setup: source organism: Orthohantavirus sinnombreense
pKd: −log10 of the molar value.
test_readout: pKd

Lookup result for YRTLGVFRY ; measured pKd: ≤ 4.70

The measured values listed here are drawn from the Immune Epitope Database (IEDB).
